Attribution: patent US20100022483A1

Would you kindly list IC50 at 24 h for each of these compounds?
ASSAY PROCEDURE: Mammalian cytotoxicity assay (resazurin), COS-1 cells
Type: cell-based
PROTOCOL CONDITIONS: African green monkey, read-out: Cytotox. COS-1

Some entries whose results are on file:
[Q] Please give the measured IC50 at 24 h for this compound: "CCOC(=O)CCNC(=O)c1cccc(-c2ccc(O)c3c2C[C@H]2C[C@H]4[C@H](N(C)C)C(O)=C(C(N)=O)C(=O)[C@@]4(O)C(O)=C2C3=O)c1"
[A] > 14.2 µM

[Q] Please give the measured IC50 at 24 h for this compound: "CN(C)CC(=O)N1CC=C(c2ccc(O)c3c2C[C@H]2C[C@H]4[C@H](N(C)C)C(O)=C(C(N)=O)C(=O)[C@@]4(O)C(O)=C2C3=O)CC1"
[A] > 145 µM

[Q] Please give the measured IC50 at 24 h for this compound: CN(C)[C@H]1C(O)=C(C(N)=O)C(=O)[C@@]2(O)C(O)=C3C(=O)c4c(O)ccc(-c5cccc(C(N)=O)c5)c4C[C@H]3C[C@@H]12 (stereo in doubt)
[A] > 15.7 µM

[Q] Please give the measured IC50 at 24 h for this compound: "CN(C)[C@@H]1C(O)=C(C(N)=O)C(=O)[C@@]2(O)C(O)=C3C(=O)c4c(O)ccc(C(=O)CNCC(F)(F)F)c4C[C@H]3C[C@@H]12"
[A] > 47 µM

[Q] Please give the measured IC50 at 24 h for this compound: "CN1CCN(CC(=O)c2ccc(O)c3c2C[C@H]2C[C@H]4[C@H](N(C)C)C(O)=C(C(N)=O)C(=O)[C@@]4(O)C(O)=C2C3=O)CC1"
[A] > 136 µM

[Q] Please give the measured IC50 at 24 h for this compound: "CN(C)CCC(=O)c1ccc(O)c2c1C[C@H]1C[C@H]3[C@H](N(C)C)C(O)=C(C(N)=O)C(=O)[C@@]3(O)C(O)=C1C2=O"
[A] > 153 µM

For every item below, please supply its IC50 at 24 h.
1. CN(C)[C@@H]1C(O)=C(C(N)=O)C(=O)[C@@]2(O)C(O)=C3C(=O)c4c(O)ccc(C(=O)CNCC(N)=O)c4C[C@H]3C[C@@H]12
2. CN(C)[C@@H]1C(O)=C(C(N)=O)C(=O)[C@@]2(O)C(O)=C3C(=O)c4c(O)ccc(-c5ccccc5)c4C[C@H]3C[C@@H]12
3. COCCN(C)CC(=O)c1ccc(O)c2c1C[C@H]1C[C@H]3[C@H](N(C)C)C(O)=C(C(N)=O)C(=O)[C@@]3(O)C(O)=C1C2=O
4. CN(C)[C@H]1C(O)=C(C(N)=O)C(=O)[C@@]2(O)C(O)=C3C(=O)c4c(O)ccc(-c5cccc(CCCN6CCCCC6)c5)c4C[C@H]3C[C@@H]12
5. CN1CCN(Cc2ccc(-c3ccc(O)c4c3C[C@H]3C[C@H]5[C@@H](N(C)C)C(O)=C(C(N)=O)C(=O)[C@@]5(O)C(O)=C3C4=O)o2)CC1

[A]
["> 119 µM", "6.06 µM", "> 154 µM", "> 63 µM", "> 32 µM"]

###

System: gram positive bacteria
ASSAY PROCEDURE: In vitro anti-bacterial activity assay (broth dilution MIC), gram positive bacteria
Type: cell-based, S. aureus
PROTOCOL CONDITIONS: Staphylococcus aureus, 18 h, S. aureus MRSA5; read-out: Median MIC's G+ S. aureus MRSA5
Would you kindly list log10(MIC) for each of these compounds?
Reminder: these figures are log10 of reported MIC, in µg/mL before transformation.

[Q] Please give the measured log10(MIC) for this compound: "CN(C)CCNCc1cccc(-c2ccc(O)c3c2C[C@H]2C[C@H]4[C@H](N(C)C)C(O)=C(C(N)=O)C(=O)[C@@]4(O)C(O)=C2C3=O)c1"
[A] 0.90

[Q] Please give the measured log10(MIC) for this compound: "CN(C)CCNC(=O)c1ccc(O)c2c1C[C@H]1C[C@H]3[C@H](N(C)C)C(O)=C(C(N)=O)C(=O)[C@@]3(O)C(O)=C1C2=O"
[A] 1.81

[Q] Please give the measured log10(MIC) for this compound: "CN(C)CCNC(=O)c1cccc(-c2ccc(O)c3c2C[C@H]2C[C@H]4[C@@H](N(C)C)C(O)=C(C(N)=O)C(=O)[C@@]4(O)C(O)=C2C3=O)c1"
[A] 1.81

[Q] Please give the measured log10(MIC) for this compound: COC(C)CNCC(=O)c1ccc(O)c2c1C[C@H]1C[C@H]3[C@H](N(C)C)C(O)=C(C(N)=O)C(=O)[C@@]3(O)C(O)=C1C2=O (stereo partly shown)
[A] 1.51

For every item below, please supply its log10(MIC).
1. CC(=O)c1cccc(-c2ccc(O)c3c2C[C@H]2C[C@H]4[C@H](N(C)C)C(O)=C(C(N)=O)C(=O)[C@@]4(O)C(O)=C2C3=O)c1
2. COCCN(C)CC(=O)c1ccc(O)c2c1C[C@H]1C[C@H]3[C@H](N(C)C)C(O)=C(C(N)=O)C(=O)[C@@]3(O)C(O)=C1C2=O
3. CC(=O)NCCNC(=O)c1cccc(-c2ccc(O)c3c2C[C@H]2C[C@H]4[C@H](N(C)C)C(O)=C(C(N)=O)C(=O)[C@@]4(O)C(O)=C2C3=O)c1
4. CN(C)[C@@H]1C(O)=C(C(N)=O)C(=O)[C@@]2(O)C(O)=C3C(=O)c4c(O)ccc(-c5cccc(C(=O)NCC[N+](C)(C)C)c5)c4C[C@H]3C[C@@H]12
5. COc1ccc(CN(C)C)cc1-c1ccc(O)c2c1C[C@H]1C[C@H]3[C@H](N(C)C)C(O)=C(C(N)=O)C(=O)[C@@]3(O)C(O)=C1C2=O
6. CN1CCN(C(=O)c2cccc(-c3ccc(O)c4c3C[C@H]3C[C@H]5[C@@H](N(C)C)C(O)=C(C(N)=O)C(=O)[C@@]5(O)C(O)=C3C4=O)c2)CC1
7. CN(C)CCCCNC(=O)c1cccc(-c2ccc(O)c3c2C[C@H]2C[C@H]4[C@H](N(C)C)C(O)=C(C(N)=O)C(=O)[C@@]4(O)C(O)=C2C3=O)c1
8. CN(C)[C@@H]1C(O)=C(C(N)=O)C(=O)[C@@]2(O)C(O)=C3C(=O)c4c(O)ccc(-c5ccc(CNCc6cccnc6)o5)c4C[C@H]3C[C@@H]12

[A]
[-0.30, 0.60, 1.51, 1.81, -0.30, 1.81, 1.81, 0.90]

For every item below, please supply its log10(MIC).
1. COCC(=O)c1ccc(O)c2c1C[C@H]1C[C@H]3[C@H](N(C)C)C(O)=C(C(N)=O)C(=O)[C@@]3(O)C(O)=C1C2=O
2. CNCCNC(=O)c1cccc(-c2ccc(O)c3c2C[C@H]2C[C@H]4[C@H](N(C)C)C(O)=C(C(N)=O)C(=O)[C@@]4(O)C(O)=C2C3=O)c1
3. CN(Cc1cccnc1)Cc1cccc(-c2ccc(O)c3c2C[C@H]2C[C@H]4[C@H](N(C)C)C(O)=C(C(N)=O)C(=O)[C@@]4(O)C(O)=C2C3=O)c1
4. CCOC(=O)N1CCN(CC(=O)c2ccc(O)c3c2C[C@H]2C[C@H]4[C@H](N(C)C)C(O)=C(C(N)=O)C(=O)[C@@]4(O)C(O)=C2C3=O)CC1
5. CN(C)CCCNC(=O)c1cccc(-c2ccc(O)c3c2C[C@H]2C[C@H]4[C@@H](N(C)C)C(O)=C(C(N)=O)C(=O)[C@@]4(O)C(O)=C2C3=O)c1
6. CN(C)[C@H]1C(O)=C(C(N)=O)C(=O)[C@@]2(O)C(O)=C3C(=O)c4c(O)ccc(-c5cnc6ccccc6c5)c4C[C@H]3C[C@@H]12
7. CC(=O)N1CCN(CC(=O)c2ccc(O)c3c2C[C@H]2C[C@H]4[C@H](N(C)C)C(O)=C(C(N)=O)C(=O)[C@@]4(O)C(O)=C2C3=O)CC1

[A]
[0.00, 1.81, 0.30, -0.30, 1.81, 0.30, 0.90]

For every item below, please supply its log10(MIC).
1. COCCCOCCN(C)Cc1cccc(-c2ccc(O)c3c2C[C@H]2C[C@H]4[C@H](N(C)C)C(O)=C(C(N)=O)C(=O)[C@@]4(O)C(O)=C2C3=O)c1
2. CN(C)Cc1ccc(-c2ccc(O)c3c2C[C@H]2C[C@H]4[C@H](N(C)C)C(O)=C(C(N)=O)C(=O)[C@@]4(O)C(O)=C2C3=O)[nH]1
3. CN(C)[C@@H]1C(O)=C(C(N)=O)C(=O)[C@@]2(O)C(O)=C3C(=O)c4c(O)ccc(C(=O)CNCc5cccn5C)c4C[C@H]3C[C@@H]12

[A]
[0.30, 0.60, 0.60]
